Can you tell me ED50 for the items I'm about to list?
# System: amphetamine
# methodSummary: Amphetamine antagonism in rats
# Format: in vivo
# setupConditions: Rattus norvegicus, po, rats, p.o., amphetamine 10 mg/kg base i.v.; read-out: Amphetamine antag. ED50 p.o.

Query: Input OCCN1CCN([C@@H]2C[C@@H](c3ccc(F)cc3)c3ccc(Cl)cc32)CC1 (relative stereo) [Lu 14-068] , output reported ED50.
Result: 1.6 mg/kg

Query: Input OCCCCN1CCN([C@@H]2C[C@@H](c3ccc(F)cc3)c3ccc(F)cc32)CC1 (relative stereo) [Lu 18-080] , output reported ED50.
Result: 3.5 mg/kg

Query: Input CN1CCN([C@@H]2C[C@@H](c3ccc(F)cc3)c3ccc(F)cc32)CC1 (relative stereo) [Lu 13-092] , output reported ED50.
Result: 14.8 mg/kg

Query: Input CC(C)N1CCN(C2CC(c3ccc(F)cc3)c3ccc(C(F)(F)F)cc32)CC1 (stereo not shown) [Lu 18-050] , output reported ED50.
Result: 0.22 mg/kg

Query: Input Fc1ccc(C2CC(N3CCN(CC4CCCCC4)CC3)c3cc(F)ccc32)cc1 (stereo not shown) [Lu 17-100] , output reported ED50.
Result: > 40 mg/kg

Query: Input OCCN1CCN([C@@H]2C[C@@H](c3ccccc3)c3ccc(C(F)(F)F)cc32)CC1 (relative stereo) [Lu 18-089] , output reported ED50.
Result: 5 mg/kg

Query: Input OCC(O)CN1CCN(C2CC(c3ccc(F)cc3)c3ccc(C(F)(F)F)cc32)CC1 (stereo not shown) [Lu 18-063] , output reported ED50.
Result: 0.12 mg/kg

Query: Input CN1CCN([C@@H]2C[C@@H](c3ccccc3)c3ccc(Cl)cc32)CC1 (relative stereo) [Lu 14-063] , output reported ED50.
Result: > 40 mg/kg

Query: Input Cc1ccc2c(c1)[C@H](N1CCN(C)CC1)C[C@H]2c1ccc(F)cc1 (relative stereo) [Lu 17-048] , output reported ED50.
Result: 6.7 mg/kg

Query: Input OCCCN1CCN([C@@H]2C[C@@H](c3ccc(F)cc3)c3ccc(F)cc32)CC1 (relative stereo) [Lu 14-036] , output reported ED50.
Result: 2.3 mg/kg

Query: Input OCCCCN1CCN(C2CC(c3ccc(F)cc3)c3ccc(C(F)(F)F)cc32)CC1 (stereo not shown) [Lu 18-182] , output reported ED50.
Result: 0.2 mg/kg

Query: Input OCCCN1CCN(C2CC(c3ccc(F)cc3)c3ccc(C(F)(F)F)cc32)CC1 (stereo not shown) [Lu 18-048] , output reported ED50.
Result: 0.16 mg/kg

Query: Input OCCN1CCN([C@@H]2C[C@@H](c3ccc(F)cc3)c3ccc(F)cc32)CC1 (relative stereo) [Lu 13-117] , output reported ED50.
Result: 6 mg/kg

Query: Input CSc1ccc2c(c1)[C@H](N1CCN(C)CC1)C[C@H]2c1ccc(F)cc1 (relative stereo) [Lu 17-055] , output reported ED50.
Result: 10 mg/kg

Query: Input CSc1ccc2c(c1)C(N1CCN(CCCO)CC1)CC2c1ccc(F)cc1 (stereo not shown) [Lu 17-068] , output reported ED50.
Result: 1.8 mg/kg

Query: Input CN1CCN(C2CC(c3ccc(F)cc3)c3ccc(S(C)(=O)=O)cc32)CC1 (stereo not shown) [Lu 18-040] , output reported ED50.
Result: 12 mg/kg
